# run.description: Half life in 0.1 M phosphate buffer at pH 7.4 at 37 degC by TLC
# Type: physicochemical
Label true (1) when half-life is at or above 4 h; anything below gets false (0).

| compound | class.assignment |
| --- | --- |
| Cc1cn([C@H]2C[C@H](N=[N+]=[N-])[C@@H](COP(=O)(OCCS(=O)(=O)c3ccccc3)Oc3ccc(F)cc3)O2)c(=O)[nH]c1=O (some centres not stated) | false (0) |
| COc1ccc(S(=O)(=O)CCOP(=O)(OCCS(=O)(=O)c2ccc(OC)cc2)OC[C@H]2O[C@@H](n3cc(C)c(=O)[nH]c3=O)C[C@@H]2N=[N+]=[N-])cc1 | false (0) |
| Cc1cn([C@H]2C[C@H](N=[N+]=[N-])[C@@H](COP(=O)(OCC(C)S(=O)(=O)c3ccccc3)OCC(C)S(=O)(=O)c3ccccc3)O2)c(=O)[nH]c1=O (some centres not stated) | true (1) |
| Cc1cn([C@H]2C[C@H](N=[N+]=[N-])[C@@H](COP(=O)(OCCS(=O)(=O)c3ccccc3)Oc3ccccc3)O2)c(=O)[nH]c1=O (some centres not stated) | false (0) |
| Cc1cn([C@H]2C[C@H](N=[N+]=[N-])[C@@H](COP(=O)(OCC(c3ccccc3)S(=O)(=O)c3ccccc3)OCC(c3ccccc3)S(=O)(=O)c3ccccc3)O2)c(=O)[nH]c1=O (some centres not stated) | false (0) |
| Cc1ccc(OP(=O)(OCCSc2ccccc2)OC[C@H]2O[C@@H](n3cc(C)c(=O)[nH]c3=O)C[C@@H]2N=[N+]=[N-])cc1 (some centres not stated) | true (1) |
| Cc1ccc(S(=O)(=O)CCOP(=O)(OCCS(=O)(=O)c2ccc(C)cc2)OC[C@H]2O[C@@H](n3cc(C)c(=O)[nH]c3=O)C[C@@H]2N=[N+]=[N-])cc1 | false (0) |
| Cc1cn([C@H]2C[C@H](N=[N+]=[N-])[C@@H](COP(=O)(OCCS(=O)(=O)c3ccc(Cl)cc3)OCCS(=O)(=O)c3ccc(Cl)cc3)O2)c(=O)[nH]c1=O | false (0) |
| CCC(CS(=O)(=O)c1ccccc1)OP(=O)(OC[C@H]1O[C@@H](n2cc(C)c(=O)[nH]c2=O)C[C@@H]1N=[N+]=[N-])OC(CC)CS(=O)(=O)c1ccccc1 (some centres not stated) | true (1) |
| Cc1cn([C@H]2C[C@H](N=[N+]=[N-])[C@@H](COP(=O)(OCCS(=O)(=O)c3ccccc3)OCCS(=O)(=O)c3ccccc3)O2)c(=O)[nH]c1=O | false (0) |
| COc1ccc(OP(=O)(OCCS(=O)(=O)c2ccccc2)OC[C@H]2O[C@@H](n3cc(C)c(=O)[nH]c3=O)C[C@@H]2N=[N+]=[N-])cc1 (some centres not stated) | false (0) |
| Cc1cn([C@H]2C[C@H](N=[N+]=[N-])[C@@H](COP(=O)(OC(C)CS(=O)(=O)c3ccccc3)OC(C)CS(=O)(=O)c3ccccc3)O2)c(=O)[nH]c1=O (some centres not stated) | false (0) |
